B1: FERM and PDZ domain-containing protein 4, residues 75 to 154; numbered along this chain, Q14CM0 (parent)
chain: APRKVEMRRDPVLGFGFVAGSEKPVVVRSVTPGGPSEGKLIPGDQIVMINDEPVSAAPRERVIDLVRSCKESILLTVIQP

# Variants of: B1
# TEST_METHOD_NOTES: abundance fitness (aPCA) (normalised: wild type 0, dead -1); higher = more abundant; growth selection in yeast, the domain comes from the species named
# RUN_PARAMETERS: Homo sapiens
# abundance fitness per entry

MUTANT_LABEL: E52T
abundance fitness: -0.037
--
MUTANT_LABEL: D10C
abundance fitness: -0.138
--
MUTANT_LABEL: E60T
abundance fitness: -0.03
--
MUTANT_LABEL: P80E
abundance fitness: -0.164
--
MUTANT_LABEL: I73P
abundance fitness: -0.57
--
MUTANT_LABEL: S21I
abundance fitness: -0.234
--
MUTANT_LABEL: E6K
abundance fitness: 0.002
--
MUTANT_LABEL: M48I
abundance fitness: -0.154
--
MUTANT_LABEL: A19Q
abundance fitness: -0.084
--
MUTANT_LABEL: P58F
abundance fitness: -0.33
--
MUTANT_LABEL: E71C
abundance fitness: -0.149
--
MUTANT_LABEL: S68K
abundance fitness: -0.043
--
MUTANT_LABEL: I63R
abundance fitness: -0.033
--
MUTANT_LABEL: G38F
abundance fitness: -0.096
--
MUTANT_LABEL: R3M
abundance fitness: -0.188
--
MUTANT_LABEL: V62H
abundance fitness: -0.711
--
MUTANT_LABEL: R59Y
abundance fitness: 0.025
--
MUTANT_LABEL: K4R
abundance fitness: 0.114
--
MUTANT_LABEL: I78A
abundance fitness: 0.028
--
MUTANT_LABEL: G33P
abundance fitness: -0.871
--
MUTANT_LABEL: G34Q
abundance fitness: -0.802
--
MUTANT_LABEL: A19W
abundance fitness: -0.045
